Parasitaemia values for the compounds below.
# Tested on: Plasmodium berghei
# protocol details: Parasitemia at day 7 after 50 mg/kg/day dose over 4 days
# Format: functional

chemical structure	unit info	Parasitaemia
CC(=O)c1ccc(OCCCOc2ccc(C(=O)/C=C/c3ccc4c(c3)OCO4)cc2)cc1	%	1.8
COc1ccc(/C=C/C(=O)c2ccc(OCOc3ccc(C(=O)/C=C/c4ccc(OC)c(OC)c4)cc3)cc2)cc1OC	%	2.3
COc1cccc(/C=C/C(=O)c2ccc(OCCCCOc3ccc(C(=O)/C=C/c4cccc(OC)c4)cc3)cc2)c1	%	2.1

====

Each entry below carries its recorded Parasitaemia.
# Test system: Plasmodium berghei
# protocol details: In vivo activity after 11 days against chloroquine-sensitive Plasmodium berghei infected mice (Mus musculus) at 100 mg/kg intraperitoneal dose over 4 days
# Assay type: functional

chemical structure	assayed target	Parasitaemia [%]
COc1ccc(/C=C/C(=O)c2ccc(OCCCCCCOc3ccc(C(=O)/C=C/c4ccc(OC)c(OC)c4)cc3)cc2)cc1OC	Plasmodium berghei	2.1
COc1cccc(/C=C/C(=O)c2ccc(OCCCCOc3ccc(C(=O)/C=C/c4cccc(OC)c4)cc3)cc2)c1	Plasmodium berghei	6.4
COc1ccc(/C=C/C(=O)c2ccc(OCCCCOc3ccc(C(=O)/C=C/c4ccc(OC)cc4OC)cc3)cc2)c(OC)c1	Plasmodium berghei	5.2
CC(=O)c1ccc(OCCCCCCOc2ccc(C(=O)/C=C/c3ccc4c(c3)OCO4)cc2)cc1	Plasmodium berghei	6.3
